Quick reference: Population Healthy Nuclei (%) of the listed items.
System: Fibroblast
Experiment: Multiplex assay against human fibroblast
Assay type: toxicity, cell-based
Conditions: 24 h, 10 µM, compound concentration 10 uM, replicate 2

Use these answered entries as a reference point.
COc1cc2ncnc(Nc3ccc(F)c(Cl)c3)c2cc1NC(=O)/C=C/CN1CCCCC1 [DACOMITINIB ANHYDROUS]
36%
CCN1CCN(Cc2ccc(Nc3ncc(F)c(-c4cc(F)c5nc(C)n(C(C)C)c5c4)n3)nc2)CC1.CS(=O)(=O)O
13%

Form field: reported Population Healthy Nuclei (%) of O=C(Nc1ccc(Cl)cc1)Nc1cccc(-c2cccc(N3CCCC3)n2)c1 54%

Please give the measured Population Healthy Nuclei (%) for this molecule: Cn1nc(C(F)(F)F)cc1-c1cnc(N2CCc3cc(S(=O)(=O)Nc4c(F)cc(Cl)cc4F)cc(N4CCCC4=O)c32)nc1 [TP-020] 35%

What value of Population Healthy Nuclei (%) has been reported for the following molecule? O=C1NC(=O)C(c2cnc3ccccn23)=C1c1cn2c3c(cc(F)cc13)CN(C(=O)N1CCCCC1)CC2 [LY-2090314] 64%

May I ask what Population Healthy Nuclei (%) has been recorded for Cc1cn(-c2cc(NC(=O)c3ccc(C)c(Nc4nccc(-c5cccnc5)n4)c3)cc(C(F)(F)F)c2)cn1 [NILOTINIB] ? 83%

Find the recorded Population Healthy Nuclei (%) belonging to COc1ccc(S(=O)(=O)N(CCO)c2ccccc2CN(C)C/C=C/c2ccc(Cl)cc2)cc1.O=P(O)(O)O and report it. 20%

Hello, the source for this data is ChEMBL document CHEMBL4689842, in case you need it.
